- Assay info: self-splicing fitness, log relative to wild type (ln ratio); higher = more splicing; Tetrahymena group I intron in knt gene, E. coli kanamycin selection, DiMSum; sequences stand for … in CUCUCU…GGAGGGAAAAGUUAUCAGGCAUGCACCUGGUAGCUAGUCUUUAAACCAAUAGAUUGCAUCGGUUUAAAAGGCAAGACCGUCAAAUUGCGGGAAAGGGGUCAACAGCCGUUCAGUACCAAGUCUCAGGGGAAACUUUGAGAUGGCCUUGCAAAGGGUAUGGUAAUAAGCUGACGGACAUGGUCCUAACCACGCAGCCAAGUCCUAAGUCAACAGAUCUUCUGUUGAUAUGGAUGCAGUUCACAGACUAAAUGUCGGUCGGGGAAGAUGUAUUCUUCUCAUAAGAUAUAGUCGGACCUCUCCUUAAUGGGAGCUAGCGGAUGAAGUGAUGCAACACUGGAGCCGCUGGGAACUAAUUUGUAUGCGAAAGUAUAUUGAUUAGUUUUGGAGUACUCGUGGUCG;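 further: selection with 25 µg/mL kanamycin versus none on LB agar overnight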
- Test parameters: 30 °C
Quantity kind: self-splicing fitness (ln)
One number for each entry.

CGGUAGCAAUAUUACGCCCA 0.153

# map each sequence to its self-splicing fitness (ln)
1. UGUAAGCAAUAUUACGAGCG
2. CCUCAGCAAUAUUACGUGUG
3. UUCUAGCAAUAUUACGGGUC
4. GACAAGCAAUAUUACGGGUA
5. UCGCAGCAAUAUUACGUCUA
6. GUACAGCAAUAUUACGUUGA

Ans.
1: 0.195; 2: -1.4; 3: -3.23; 4: -0.935; 5: -0.18; 6: -2.77

Qu. Fill in: self-splicing fitness (ln) of ACUUAGCAAUAUUACGAACU is ___
Ans. -0.706

* * *

- Assay info: self-splicing fitness, log relative to wild type (ln ratio); higher = more splicing; Tetrahymena group I intron in knt gene, E. coli kanamycin selection, DiMSum; sequences stand for … in CUCUCU…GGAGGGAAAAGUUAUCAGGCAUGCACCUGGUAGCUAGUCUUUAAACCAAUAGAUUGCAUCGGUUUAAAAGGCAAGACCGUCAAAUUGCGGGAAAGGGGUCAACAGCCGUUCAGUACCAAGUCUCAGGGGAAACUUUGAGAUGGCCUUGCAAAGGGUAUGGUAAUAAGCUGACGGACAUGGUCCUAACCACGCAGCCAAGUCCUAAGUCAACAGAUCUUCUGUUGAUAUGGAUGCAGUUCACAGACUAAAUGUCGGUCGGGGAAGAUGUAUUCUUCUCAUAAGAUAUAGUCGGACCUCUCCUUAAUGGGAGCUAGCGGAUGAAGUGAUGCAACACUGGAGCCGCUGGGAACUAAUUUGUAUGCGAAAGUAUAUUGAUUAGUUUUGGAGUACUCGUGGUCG
- Test parameters: 37 °C
Quantity kind: self-splicing fitness (ln)

Example sequences with recorded self-splicing fitness (ln):
UCGGAGCAAUAUUACGCUAG -2.38
GAGCAGCAAUAUUACGGAAU -2.08
UCGCAGCAAUAUUACGUCAA -0.094
UUCUAGCAAUAUUACGGGUC -1.94
CCUGAGCAAUAUUACGAUUG -2.83

Please report self-splicing fitness (ln) for every entry that follows.
1. CUAUAGCAAUAUUACGACCA
2. CUACAGCAAUAUUACGCUUU
3. GUACAGCAAUAUUACGGUCA
4. GACUAGCAAUAUUACGACAU
5. AACCAGCAAUAUUACGCAAA

Ans.
[-2.44, -2.38, -0.618, -0.122, -0.805]

Provide the reported self-splicing fitness (ln) of each entry below, same order.
1. GGAGAGCAAUAUUACGAUUG
2. GUAAAGCAAUAUUACGUGGU

Ans.
[-2.17, -1.11]
